system: Escherichia coli; experiment: Antibacterial activity against Escherichia coli at </=64 ug/mL; No activity; type: functional, organism-based
Quantity: MIC

C[C@@H](c1ccccc1)[C@@H]1NC(=O)CNC(=O)[C@H](CO)NC(=O)[C@@H]([C@@H](O)[C@@H]2CNC(N)N2[C@H]2O[C@H](CO)[C@@H](O)[C@H](O)[C@@H]2O)NC(=O)[C@H]([C@@H](O)[C@@H]2CNC(N)N2)NC(=O)[C@@H](Cc2ccc(O[C@H]3O[C@H](COC(=O)Cc4ccccc4)[C@@H](O[C@H]4O[C@H](CO)[C@@H](O)[C@H](O)[C@@H]4O)[C@H](O)[C@@H]3O)cc2)NC1=O (some centres not stated)    No activity
C[C@@H](c1ccccc1)[C@@H]1NC(=O)CNC(=O)[C@H](COC(=O)CCC2CCCC2)NC(=O)[C@@H]([C@@H](O)[C@@H]2CNC(N)N2[C@H]2O[C@H](CO)[C@@H](O)[C@H](O)[C@@H]2O)NC(=O)[C@H]([C@@H](O)[C@@H]2CNC(N)N2)NC(=O)[C@@H](Cc2ccc(O[C@H]3O[C@H](CO)[C@@H](O[C@H]4O[C@H](CO)[C@@H](O)[C@H](O)[C@@H]4O)[C@H](O)[C@@H]3O)cc2)NC1=O (some centres not stated)    No activity

* * *

// values below are reported MIC
system: Enterococcus faecalis; assay: Antibacterial activity against Enterococcus faecalis; type: functional

C[C@@H](c1ccccc1)[C@@H]1NC(=O)CNC(=O)[C@H](CO)NC(=O)[C@@H]([C@@H](O)[C@@H]2CNC(N)N2[C@H]2O[C@H](COC(=O)C(c3ccccc3)c3ccccc3)[C@@H](O)[C@H](O)[C@@H]2O)NC(=O)[C@H]([C@@H](O)[C@@H]2CNC(N)N2)NC(=O)[C@@H](Cc2ccc(O[C@H]3O[C@H](CO)[C@@H](O[C@H]4O[C@H](CO)[C@@H](O)[C@H](O)[C@@H]4O)[C@H](O)[C@@H]3O)cc2)NC1=O (stereo partly drawn)    > 64 µg/mL
C[C@@H](c1ccccc1)[C@@H]1NC(=O)CNC(=O)[C@H](CO)NC(=O)[C@@H]([C@@H](O)[C@@H]2CNC(N)N2[C@H]2O[C@H](CO)[C@@H](O)[C@H](O)[C@@H]2O)NC(=O)[C@H]([C@@H](O)[C@@H]2CNC(N)N2)NC(=O)[C@@H](Cc2ccc(O[C@H]3O[C@H](CO)[C@@H](O[C@H]4O[C@H](CO)[C@@H](O)[C@H](O)[C@@H]4O)[C@H](O)[C@@H]3O)cc2)NC1=O (stereo partly drawn)    > 64 µg/mL

Please turn your attention to the following entry.
Enterococcus faecalis / MIC / C[C@@H](c1ccccc1)[C@@H]1NC(=O)CNC(=O)[C@H](CO)NC(=O)[C@@H]([C@@H](O)[C@@H]2CNC(N)N2[C@H]2O[C@H](CO)[C@@H](O)[C@H](O)[C@@H]2O)NC(=O)[C@H]([C@@H](O)[C@@H]2CNC(N)N2)NC(=O)[C@@H](Cc2ccc(O[C@H]3O[C@H](COC(=O)CCC4CCCC4)[C@@H](O[C@H]4O[C@H](CO)[C@@H](O)[C@H](O)[C@@H]4O)[C@H](O)[C@@H]3O)cc2)NC1=O (stereo partly drawn) : value? 8 µg/mL

* * *

tested on: Escherichia coli; test: Antibacterial activity against Escherichia coli at </=64 ug/mL; No activity; type: functional, organism-based
Quantity: MIC

CCCCCCC(=O)OC[C@H]1O[C@H](N2C(N)NC[C@H]2[C@H](O)[C@H]2NC(=O)[C@H]([C@@H](O)[C@@H]3CNC(N)N3)NC(=O)[C@@H](Cc3ccc(O[C@H]4O[C@H](CO)[C@@H](O[C@H]5O[C@H](CO)[C@@H](O)[C@H](O)[C@@H]5O)[C@H](O)[C@@H]4O)cc3)NC(=O)[C@H]([C@@H](C)c3ccccc3)NC(=O)CNC(=O)[C@H](CO)NC2=O)[C@@H](O)[C@@H](O)[C@@H]1O (stereo partly drawn)    No activity
C[C@@H](c1ccccc1)[C@@H]1NC(=O)CNC(=O)[C@H](CO)NC(=O)[C@@H]([C@@H](O)[C@@H]2CNC(N)N2[C@H]2O[C@H](COC(=O)Cc3ccccc3)[C@@H](O)[C@H](O)[C@@H]2O)NC(=O)[C@H]([C@@H](O)[C@@H]2CNC(N)N2)NC(=O)[C@@H](Cc2ccc(O[C@H]3O[C@H](CO)[C@@H](O[C@H]4O[C@H](CO)[C@@H](O)[C@H](O)[C@@H]4O)[C@H](O)[C@@H]3O)cc2)NC1=O (stereo partly drawn)    No activity
CCCCCC(=O)OC[C@H]1O[C@H](N2C(N)NC[C@H]2[C@H](O)[C@H]2NC(=O)[C@H]([C@@H](O)[C@@H]3CNC(N)N3)NC(=O)[C@@H](Cc3ccc(O[C@H]4O[C@H](CO)[C@@H](O[C@H]5O[C@H](CO)[C@@H](O)[C@H](O)[C@@H]5O)[C@H](O)[C@@H]4O)cc3)NC(=O)[C@H]([C@@H](C)c3ccccc3)NC(=O)CNC(=O)[C@H](CO)NC2=O)[C@@H](O)[C@@H](O)[C@@H]1O (stereo partly drawn)    No activity
